System: U251 CNS
assay-overview: NCI-60 one-dose screen, 48 h
condition-parameters: 10 µM
Protocol: Growth inhibition of the U251 human tumor cell line is measured as a screen for anti-cancer activity. Cells are grown in 96 well plates and exposed to the test compound for 48 hours. Compounds are tested at a single concentration, which is 10^-5 M for most compounds. The reported endpoint is percent growth (GI% or GIPRCNT), where numbers from 0 - 100% represent growth inhibition, and numbers from -100% - 0 represent cell death. For example, a value of 40 represents 60% growth inhibition. […]
This is part of a sample that, as a whole, favours compounds with a hit. Of some 83,000 tested, about 20% had one in any assay. The source made the active and inactive calls. Rule for the calls: active = growth percent below 10; inactive = the rest.
Select the matching outcome among active, inactive

| compound | tgt | assigned-label |
| --- | --- | --- |
| COc1cccc(-c2cc(-c3cccc(NS(C)(=O)=O)c3)nc(N)c2C#N)c1O | U251 CNS | inactive |

Let us examine a further case.
Given `CN(C)CCCn1c(=O)c2ccccc2c2cnc3[nH]ccc3c21` , state the outcome it received in this test. active

====

Give measured growth for each item. Keep answers brief.
Test system: MCF7 breast
assay-overview: NCI-60 one-dose screen, 48 h (100 = growth as untreated, 0 = no growth, -100 = all killed)
condition-parameters: 10 µM
Compounds without any hit were thinned out: in the full panel of roughly 83,000, 20% have a hit.
Answers are plain numbers, in %.

Worked examples, 4 compounds total:
| compound | tgt | readout-label | display-unit | recorded-number |
| --- | --- | --- | --- | --- |
| O=C1/C(=C\c2cn(C(=O)c3ccc(Cl)cc3)c3ccccc23)c2ccccc2N1C(=O)c1ccc(Cl)cc1 | MCF7 breast | growth | % | 71.1 |
| COc1cc(C(=O)N2CCN(c3ccccc3OC)CC2)c(N)cc1OCCCN1CCN(c2ccccc2OC)CC1 | MCF7 breast | growth | % | 96 |
| CC1(O)CCC2CC3OC3(C)CCC3OC3(C)CCC1C2(C)C (stereo not given) | MCF7 breast | growth | % | 103 |
| ClCC#CCSc1ncnc2c1ncn2CC#CCCl | MCF7 breast | growth | % | 20.2 |

Test system MCF7 breast; read-out growth; what value for `O=C1/C(=C/c2ccc([N+](=O)[O-])o2)Oc2ccccc21` ? 7.13

====

System: NCI-H226 lung
assay-overview: NCI-60 one-dose screen, 48 h (100 = growth as untreated, 0 = no growth, -100 = all killed)
condition-parameters: 10 µM
This is part of a sample that, as a whole, favours compounds with a hit. Of some 83,000 tested, about 20% had one in any assay.
readout-label: growth (%)
Give bare numbers, in %.

Dear colleague, could you send me growth for each of the items below? Thanks.
1. CCN(CC)CCNC(=O)c1ccc(NC(C)=O)cc1
2. CCOC(=O)N/N=C\C(C)=N\NC(=O)OCC
3. NC1(C(=O)O)CSSC1

1. 110
2. 119
3. 60.5

Dear colleague, could you send me growth for each of the items below? Thanks.
1. COc1cc(NC(=O)c2sc3nc4c(cc3c2N)C(O)CCC4)cc(OC)c1 (stereo unspecified)
2. Nc1ncnc2[nH]c(=O)[nH]c12
3. O=C(C[n+]1ccccc1)c1ccc2ccccc2c1
4. COc1ccc2c(c1)O/C(=C\c1ccc([N+](=O)[O-])o1)C2=O
5. COc1ccc2c(c1)nc(N)c1c3cccnc3cn21
6. CC1(C)Cc2c(sc3ncn4nc(-c5ccc(O)cc5)nc4c23)CO1
7. CCOC(=O)c1ccc(NC(=O)Nc2ncc(Cl)cc2Cl)cc1

1: 97.1; 2: 87.7; 3: 96.4; 4: 22.3; 5: 69.4; 6: 57.9; 7: 95.3

Look at this molecule and give its reported growth. `N#Cc1cc(-c2cc3ccccc3o2)oc1N` 17.4

====

System: K-562 leukemia
assay-overview: NCI-60 one-dose screen, 48 h (100 = growth as untreated, 0 = no growth, -100 = all killed)
condition-parameters: 10 µM
Description: Cells are grown in 96 well plates and exposed to the test compound for 48 hours. Compounds are tested at a single concentration, which is 10^-5 M for most compounds. The reported endpoint is percent growth (GI% or GIPRCNT), where numbers from 0 - 100% represent growth inhibition, and numbers from -100% - 0 represent cell death. For example, a value of 40 represents 60% growth inhibition. A value of 0 means no net growth occurred over the course of the experiment. […]
The panel holds about 83,000 compounds, 20% with a hit somewhere; the sample as a whole holds those more often.
One threshold, 20%, splits the recorded growth values: lower ones are Met, equal or higher ones are Not met.

Known results for molecules:
| molecule | assigned-label |
| --- | --- |
| CCOC(=O)c1ccoc1 | Not met |
| CNc1ncc(-c2ccc(C(F)(F)F)cc2)c(NC2CCCCCC2)n1 | Not met |
| COc1ccc(-c2nn(-c3cccc(NC(=O)Nc4cccc(C(F)(F)F)c4)c3)cc2-c2ccncc2)cc1Cl | Met |
| COc1ccc2c(c1)nc(N)c1c3cccnc3cn21 | Met |
| Clc1nc(Cl)c2c(ncn2C/C=C\Cn2cnc3c(Cl)nc(Cl)nc32)n1 | Met |

Does the reported growth of the following molecule sit strictly below 20%? `Nc1c(C(=O)Nc2ccccc2Cl)sc2nc3c(cc12)C(=O)CCC3` Not met

And then `CN(C)C(=S)N/N=C\C=N/NC(=S)N(C)C` , what is it? Met

And then `COc1ccc(-c2cc(/C=C3\C(=O)Nc4ccc(OC)cc43)[nH]n2)cc1` , what is it? Met

And then `Cc1cccc2c(NCCN(C)C)c3cccc(C(=O)NCCN(C)C)c3nc12` , what is it? Met

And then `O=C(Nc1nc2ccccc2s1)Nc1ccc([N+](=O)[O-])cc1Cl` , what is it? Not met

And then `COc1ccc2c(c1)sc1nc(-c3ccccc3)c(-c3cccnc3)n12` , what is it? Not met

And then COC(=O)C1(C)Cc2cc(OC(C)=O)c(OC(C)=O)cc2N1 (stereo unspecified) , what is it? Met

====

Test system: DU-145 prostate
assay-overview: NCI-60 one-dose screen, 48 h (100 = growth as untreated, 0 = no growth, -100 = all killed)
condition-parameters: 10 µM
About 83,000 compounds went through this panel and 20% of them were active in at least one assay; those are over-represented in the sample as a whole.
Label Condition met when growth is at or above 90%; anything below gets Condition not met.

Tell me whether growth is at least 90% here: COc1ccc(OC)c2c1C(=O)CC2C (stereo not given) Condition met

And then `CCOC(=O)N1C/C(=C/c2ccc(F)cc2)C(=O)/C(=C/c2ccc(F)cc2)C1` , what is it? Condition not met

And then CC1(C)OC2=C(CC1Br)C(=O)C(=O)c1ccccc12 (stereo not given) , what is it? Condition not met

====

Tested on: SNB-75 CNS
assay-overview: NCI-60 one-dose screen, 48 h (100 = growth as untreated, 0 = no growth, -100 = all killed)
condition-parameters: 10 µM
This is part of a sample that, as a whole, favours compounds with a hit. Of some 83,000 tested, about 20% had one in any assay. Calls of active or inactive are those of the source. Rule for the calls: active = growth percent below 10; inactive = the rest.
readout-label: growth

Worked examples, 4 compounds total:
| compound | growth |
| --- | --- |
| CC/C(=N\N=C(/CC)c1ccc(Br)cc1)c1ccc(Br)cc1 | 89.9% (inactive) |
| COc1ccc(/C=C2/CN(C(=O)c3ccccc3F)C/C(=C\c3ccc(OC)cc3)C2=O)cc1 | 68.9% (inactive) |
| CO/N=C(/C(=O)NC1C(=O)N2C(C(=O)O)=C(COC(N)=O)CSC12)c1ccco1 (centres undefined) | 91.6% (inactive) |
| O=C(c1ccc(Cl)cc1Cl)N1CCOCC1 | 81.8% (inactive) |

Dear colleague, could you send me growth for each of the items below? Thanks.
1. COc1cc2cc3c(nc2cc1OC)CCN3Cc1ccc(NC(=O)Nc2cc(C(F)(F)F)cc(C(F)(F)F)c2)cc1
2. Nc1ccc2cc(S(=O)(=O)O)cc(O)c2c1N=Nc1ccc(F)cc1
3. Cc1cccc(C)c1NC(=O)c1sc2nc3c(cc2c1N)C(=O)CCC3

1: 69.1% (inactive); 2: 123% (inactive); 3: 82.6% (inactive)

Dear colleague, could you send me growth for each of the items below? Thanks.
1. N=C(N)c1ccc(-c2ccc(-c3cccs3)o2)cc1
2. CCN1CCC(CCOC)(CN2c3ccccc3Sc3ccc(Cl)cc32)C1 (centres undefined)

["40.6% (inactive)", "47.8% (inactive)"]

====

System: 786-0 renal
assay-overview: NCI-60 one-dose screen, 48 h (100 = growth as untreated, 0 = no growth, -100 = all killed)
condition-parameters: 10 µM
Method: Cells are grown in 96 well plates and exposed to the test compound for 48 hours. Compounds are tested at a single concentration, which is 10^-5 M for most compounds. The reported endpoint is percent growth (GI% or GIPRCNT), where numbers from 0 - 100% represent growth inhibition, and numbers from -100% - 0 represent cell death. For example, a value of 40 represents 60% growth inhibition. A value of 0 means no net growth occurred over the course of the experiment. […]
This is part of a sample that, as a whole, favours compounds with a hit. Of some 83,000 tested, about 20% had one in any assay.
One threshold, 90%, splits the recorded growth values: lower ones are true, equal or higher ones are false.

Known results for molecules:
| molecule | assigned-label |
| --- | --- |
| COc1cc2nc(Nc3cccc(C(=O)O)c3)nc(N)c2cc1OC | true |
| COc1cc(C)ccc1C(=O)c1ccc(C)cc1OC | true |
| C/C(N)=C(\C#N)C(=O)c1ccccc1 | false |

Does the reported growth of the following molecule sit strictly below 90%? `Nc1nccc(Nc2ccccc2)n1` false

And then `O=S(=O)(NCCCNc1nccc(-c2c(-c3ccc(F)cc3)nc3sccn23)n1)c1ccc(F)cc1` , what is it? true
